# test_summary: pM value, Ca^2+
# condition_notes: pH 7.4, TL 1.1×10^-5, TM 1.0×10^-6 mol dm^-3
Record form. Attribute: pM (Ca^2+). Fill in for each entry.
The answer should be written as a number, with no unit following it.

Qu. So what's the measured pM (Ca^2+) for this one? O=C(O)CN(CCCN(CC(=O)O)CC(=O)O)CCCN(CC(=O)O)CC(=O)O [TTRA]
Ans. 8.20

Qu. Also O=C(O)CN(CCN(CC(=O)O)CC(=O)O)CCN(CC(=O)O)CC(=O)O [DTPA, diethylenetriaminepentaacetic acid, reference compound] ?
Ans. 5.45

Qu. And O=C(O)CN(CCCN(CC(=O)O)CC(=O)O)CCN(CC(=O)O)CC(=O)O [TTDA] ?
Ans. 9.73

Qu. How about O=C(O)CN(CCCCN(CC(=O)O)CC(=O)O)CCCN(CC(=O)O)CC(=O)O [TTEA] ?
Ans. 7.64

====

# test_summary: Protonation constants of the organic ligands (potentiometric titration, program PKAS)
# Type: physicochemical
# condition_notes: aqueous me4nno3, 25.0 ± 0.1° C., aqueous Me4 NNO3, I = 0.10 mol dm^-3; read-out: second protonation constant log K2^H, [H2 L]/[HL][H]
# Description: The ionic strength was 0.10 mol dm^-3 Me4 NNO3 ((CH3)4 NNO3). […] The titrant used was 0.1 mol dm^-3 NaOH with a titration amount of 0.005 ml/time.
observed_property: pKa
The answer should be written as a number, with no unit following it.

Qu. What pKa value was documented for this compound, O=C(O)CN(CCCN(CC(=O)O)CC(=O)O)CCCN(CC(=O)O)CC(=O)O [TTRA] ?
Ans. 9.12

Qu. // next record O=C(O)CN(CCCN(CC(=O)O)CC(=O)O)CCN(CC(=O)O)CC(=O)O [TTDA]
Ans. 8.92

Qu. Continue with O=C(O)CN(CCCCN(CC(=O)O)CC(=O)O)CCCN(CC(=O)O)CC(=O)O [TTEA]
Ans. 9.46

====

# test_summary: Protonation constants of the organic ligands (potentiometric titration, program PKAS)
# Type: physicochemical
# condition_notes: aqueous me4nno3, 25.0 ± 0.1° C., aqueous Me4 NNO3, I = 0.10 mol dm^-3; read-out: fourth protonation constant log K4^H, [H4 L]/[H3 L][H]
observed_property: pKa

Qu. # input molecule: `O=C(O)CN(CCCN(CC(=O)O)CC(=O)O)CCN(CC(=O)O)CC(=O)O` ; wanted: its pKa
Ans. 2.8

Qu. Another molecule to look at: `O=C(O)CN(CCCN(CC(=O)O)CC(=O)O)CCCN(CC(=O)O)CC(=O)O`
Ans. 3.1

Qu. Quick one: `O=C(O)CN(CCCCN(CC(=O)O)CC(=O)O)CCCN(CC(=O)O)CC(=O)O`
Ans. 3.04

====

# test_summary: Protonation constants of the organic ligands (potentiometric titration, program PKAS)
# Assay type: physicochemical
# condition_notes: aqueous me4nno3, 25.0 ± 0.1° C., aqueous Me4 NNO3, I = 0.10 mol dm^-3; read-out: first protonation constant log K1^H, [HL]/[L][H]
observed_property: pKa
Give a plain numeric answer without units written out.

Qu. What pKa value was documented for this compound, `O=C(O)CN(CCCN(CC(=O)O)CC(=O)O)CCCN(CC(=O)O)CC(=O)O` ?
Ans. 10.6

Qu. Entry to check: `O=C(O)CN(CCCN(CC(=O)O)CC(=O)O)CCN(CC(=O)O)CC(=O)O`
Ans. 10.6

Qu. Query `O=C(O)CN(CCCCN(CC(=O)O)CC(=O)O)CCCN(CC(=O)O)CC(=O)O` next
Ans. 10.7

====

# test_summary: pM value, Zn^2+
# condition_notes: pH 7.4, TL 1.1×10^-5, TM 1.0×10^-6 mol dm^-3
observed_property: pM (Zn^2+)
Could you keep your reply to the number by itself?

Qu. Give its pM (Zn^2+) value. Item: `O=C(O)CN(CCCN(CC(=O)O)CC(=O)O)CCCN(CC(=O)O)CC(=O)O`
Ans. 13.67

Qu. Can you handle O=C(O)CN(CCN(CC(=O)O)CC(=O)O)CCN(CC(=O)O)CC(=O)O [DTPA, diethylenetriaminepentaacetic acid, reference compound] next?
Ans. 13.39

Qu. And then `O=C(O)CN(CCCCN(CC(=O)O)CC(=O)O)CCCN(CC(=O)O)CC(=O)O` , what is it?
Ans. 13.08

Qu. What do you have for `O=C(O)CN(CCCN(CC(=O)O)CC(=O)O)CCN(CC(=O)O)CC(=O)O` ?
Ans. 13.22

====

Please provide measured pM (Cu^2+) for the entries that follow.
# test_summary: pM value, Cu^2+
# condition_notes: pH 7.4, TL 1.1×10^-5, TM 1.0×10^-6 mol dm^-3
The answer should be a number; do not append a unit.

Qu. # pM (Cu^2+) lookup, item `O=C(O)CN(CCCCN(CC(=O)O)CC(=O)O)CCCN(CC(=O)O)CC(=O)O`
Ans. 12.63

Qu. Try the compound `O=C(O)CN(CCCN(CC(=O)O)CC(=O)O)CCN(CC(=O)O)CC(=O)O`
Ans. 13.58

Qu. One more compound: O=C(O)CN(CCN(CC(=O)O)CC(=O)O)CCN(CC(=O)O)CC(=O)O [DTPA, diethylenetriaminepentaacetic acid, reference compound]
Ans. 16.06

Qu. Here is the next compound: `O=C(O)CN(CCCN(CC(=O)O)CC(=O)O)CCCN(CC(=O)O)CC(=O)O`
Ans. 13.12

Reference source for all entries: patent US6303761A
